assay: Bioavailability in Swiss-Webster mouse at 2 mg/kg; assay type: ADME, organism-based; conditions: in vivo
Measured quantity: bioavailability

Past entries and their recorded results:
O=C(O)CC(Cc1ccc(OCCCNc2ccccn2)cc1)c1ccccc1 (centres undefined) ... 100%
O=C(O)CC(Cc1ccc(OCCCNc2ccccn2)cc1)c1cccnc1 (centres undefined) ... 100%
O=C(O)CC1CC1c1ccc(OCCCNc2ccccn2)cc1 (centres undefined) ... 79%

Continue with the next molecule.
Request the reported bioavailability associated with O=C(O)CC1CC1c1ccc(OCCc2ccc3c(n2)NCCC3)cc1 (stereo in doubt; 7)
62%

----------
target: Integrin alpha-V/beta-5 (Homo sapiens, UniProt P06756+P18084); experiment: Inhibition of integrin alpha-v-beta-5 receptor expressed in HEK293 cells; assay type: cell-based
Sequence (P06756 31-889 limits assumed): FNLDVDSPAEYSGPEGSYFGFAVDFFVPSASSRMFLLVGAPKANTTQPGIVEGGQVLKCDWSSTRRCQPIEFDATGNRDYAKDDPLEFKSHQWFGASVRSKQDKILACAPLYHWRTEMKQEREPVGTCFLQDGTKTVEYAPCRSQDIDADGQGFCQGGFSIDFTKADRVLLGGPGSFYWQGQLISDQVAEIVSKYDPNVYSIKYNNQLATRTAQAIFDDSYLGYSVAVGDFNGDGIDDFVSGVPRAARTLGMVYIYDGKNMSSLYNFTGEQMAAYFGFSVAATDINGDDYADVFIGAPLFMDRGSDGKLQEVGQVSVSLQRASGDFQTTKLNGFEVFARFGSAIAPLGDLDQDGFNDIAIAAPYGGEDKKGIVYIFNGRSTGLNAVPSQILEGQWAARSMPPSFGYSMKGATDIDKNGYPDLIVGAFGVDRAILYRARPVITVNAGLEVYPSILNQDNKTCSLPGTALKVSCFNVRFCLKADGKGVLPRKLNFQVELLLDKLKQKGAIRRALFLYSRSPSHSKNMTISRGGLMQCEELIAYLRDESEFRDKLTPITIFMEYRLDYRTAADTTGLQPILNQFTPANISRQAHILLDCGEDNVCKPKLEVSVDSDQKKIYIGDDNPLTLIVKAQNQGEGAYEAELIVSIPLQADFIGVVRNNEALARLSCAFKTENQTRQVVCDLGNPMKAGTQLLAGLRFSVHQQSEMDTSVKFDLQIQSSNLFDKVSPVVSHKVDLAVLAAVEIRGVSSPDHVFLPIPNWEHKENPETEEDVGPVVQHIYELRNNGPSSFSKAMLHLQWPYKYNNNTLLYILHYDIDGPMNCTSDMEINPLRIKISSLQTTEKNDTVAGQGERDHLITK
Sequence (P06756 891-1048 limits assumed): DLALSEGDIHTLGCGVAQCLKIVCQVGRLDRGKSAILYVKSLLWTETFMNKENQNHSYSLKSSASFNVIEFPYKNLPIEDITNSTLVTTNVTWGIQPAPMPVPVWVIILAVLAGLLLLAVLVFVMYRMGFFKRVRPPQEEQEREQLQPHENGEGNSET
Sequence (P18084 24-799 limits assumed): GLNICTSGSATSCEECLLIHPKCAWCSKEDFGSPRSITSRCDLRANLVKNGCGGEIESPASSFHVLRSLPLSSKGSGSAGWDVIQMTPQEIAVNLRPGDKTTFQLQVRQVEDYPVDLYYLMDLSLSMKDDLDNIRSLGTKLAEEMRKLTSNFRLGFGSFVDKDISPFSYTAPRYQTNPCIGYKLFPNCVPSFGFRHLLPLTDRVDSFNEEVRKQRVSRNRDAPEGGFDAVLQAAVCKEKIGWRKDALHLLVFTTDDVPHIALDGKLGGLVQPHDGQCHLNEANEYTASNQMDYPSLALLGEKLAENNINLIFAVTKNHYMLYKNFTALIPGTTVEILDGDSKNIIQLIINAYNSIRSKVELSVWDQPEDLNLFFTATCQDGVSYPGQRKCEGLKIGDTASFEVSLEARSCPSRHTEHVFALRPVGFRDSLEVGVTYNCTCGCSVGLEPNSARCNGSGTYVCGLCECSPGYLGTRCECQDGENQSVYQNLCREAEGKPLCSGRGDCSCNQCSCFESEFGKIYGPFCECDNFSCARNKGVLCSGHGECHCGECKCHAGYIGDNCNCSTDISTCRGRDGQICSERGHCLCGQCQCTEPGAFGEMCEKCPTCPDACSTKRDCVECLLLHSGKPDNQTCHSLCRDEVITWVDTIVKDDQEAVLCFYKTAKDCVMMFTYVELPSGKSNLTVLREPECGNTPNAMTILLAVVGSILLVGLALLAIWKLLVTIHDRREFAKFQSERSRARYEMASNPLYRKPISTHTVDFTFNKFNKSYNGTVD
pIC50: −log10 of the molar value.
Short version: pIC50 at least 8 is met, less is not met.

Before answering, review these 5 worked examples.
O=C(O)CC1CC1c1ccc(OCCc2ccc3c(n2)NCCC3)c(F)c1 (centres undefined) ... met
O=C(O)CC1CC1c1ccc(OCCc2ccc3c(n2)NCCC3)cc1 (stereo in doubt; (+)7) ... met
CC(CC(=O)O)Cc1ccc(OCCCNc2ccccn2)cc1 (centres undefined) ... not met
O=C(O)CC1CC1c1ccc(OCCc2ccc3c(n2)NCCC3)cc1 (stereo in doubt; 7) ... met
O=C(O)CC1CC1c1ccc(OCCc2ccc3c(n2)NCCC3)cc1 (single isomer, unassigned; (-)) ... not met

Exam item: decide whether the reported pIC50 for O=C(O)CC1C(c2ccc(OCCc3ccc4c(n3)NCCC4)cc2)C1(Br)Br (centres undefined) is at least 8.
not met

Exam item: decide whether the reported pIC50 for O=C(O)CC(Cc1ccc(OCCCNc2ccccn2)cc1)c1ccccc1 (centres undefined) is at least 8.
not met

Exam item: decide whether the reported pIC50 for O=C(O)CC1CC1c1ccc(OCCc2ccc3c(n2)NCCC3)c(O)c1 (centres undefined) is at least 8.
met

Exam item: decide whether the reported pIC50 for CC1(C)C(CC(=O)O)C1c1ccc(OCCc2ccc3c(n2)NCCC3)cc1 (stereo in doubt; (+)83) is at least 8.
met

----------
target: Integrin alpha-V/beta-3 (Homo sapiens, UniProt P05106+P06756); experiment: Inhibition of human integrin alpha-v-beta-3 receptor expressed in HEK293 cells; type: cell-based
Sequence (P05106 27-788 limits assumed): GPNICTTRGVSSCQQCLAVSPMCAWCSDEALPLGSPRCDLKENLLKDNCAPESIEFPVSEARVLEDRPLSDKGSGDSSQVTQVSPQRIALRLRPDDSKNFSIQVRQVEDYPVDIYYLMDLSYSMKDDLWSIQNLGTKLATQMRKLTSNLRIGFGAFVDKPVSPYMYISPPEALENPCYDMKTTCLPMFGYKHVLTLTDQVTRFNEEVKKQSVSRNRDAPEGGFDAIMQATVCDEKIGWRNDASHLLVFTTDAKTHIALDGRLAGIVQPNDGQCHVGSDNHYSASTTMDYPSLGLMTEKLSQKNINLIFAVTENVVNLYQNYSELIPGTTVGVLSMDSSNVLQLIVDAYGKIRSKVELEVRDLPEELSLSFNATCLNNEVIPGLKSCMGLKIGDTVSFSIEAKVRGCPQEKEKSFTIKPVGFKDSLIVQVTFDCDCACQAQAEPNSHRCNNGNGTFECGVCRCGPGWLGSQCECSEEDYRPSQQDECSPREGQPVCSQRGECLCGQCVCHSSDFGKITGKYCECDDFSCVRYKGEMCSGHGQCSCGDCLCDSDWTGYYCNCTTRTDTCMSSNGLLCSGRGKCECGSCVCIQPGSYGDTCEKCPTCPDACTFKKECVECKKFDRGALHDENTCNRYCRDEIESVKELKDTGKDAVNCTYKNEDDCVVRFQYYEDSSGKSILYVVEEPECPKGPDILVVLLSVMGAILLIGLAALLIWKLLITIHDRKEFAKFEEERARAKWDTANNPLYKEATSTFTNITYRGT
Sequence (P06756 31-889 limits assumed): as the sequence (P06756 31-889 limits assumed) above
Sequence (P06756 891-1048 limits assumed): as the sequence (P06756 891-1048 limits assumed) above
Measured quantity: pIC50
Numbers only, as −log10 of the molar value.

Dear reader, for each entry below, please note its pIC50.
1. O=C(O)CCC1CC1c1ccc(OCCc2ccc3c(n2)NCCC3)nc1 (stereo not drawn)
2. O=C(O)CC1CC1c1cccc(OCCc2ccc3c(n2)NCCC3)c1 (stereo not drawn)
3. O=C(O)CC1CC1c1ccc(OCCc2ccc3c(n2)NCCC3)c(F)c1 (stereo not drawn)
4. O=C(O)CC1CC1c1ccc(OCCc2ccc3c(n2)NCCC3)cc1 (stereo in doubt; (+)7)
5. O=C(O)CC(Cc1ccc(OCCCNc2ccccn2)cc1)c1ccccc1 (stereo not drawn)
6. CC1(C)C(CC(=O)O)C1c1ccc(OCCc2ccc3c(n2)NCCC3)cc1 (stereo in doubt; 83)
7. O=C(O)CC1C(c2ccc(OCCc3ccc4c(n3)NCCC4)cc2)C1(Br)Br (stereo not drawn)

1. 6.81
2. 6.69
3. 7.96
4. 9.22
5. 7.54
6. 8.82
7. 8.77

Request the reported pIC50 associated with O=C(O)CC1CC1c1ccc(OCCCNc2ccccn2)cc1 (stereo not drawn)
7.38
